molecular target: Death-associated protein kinase 1 (Homo sapiens) (UniProt P53355); conditions: at 0.1 µM;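 note: reported figure is the mean inhibition of DAPK1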
Sequence (P53355 whole entry, looked up): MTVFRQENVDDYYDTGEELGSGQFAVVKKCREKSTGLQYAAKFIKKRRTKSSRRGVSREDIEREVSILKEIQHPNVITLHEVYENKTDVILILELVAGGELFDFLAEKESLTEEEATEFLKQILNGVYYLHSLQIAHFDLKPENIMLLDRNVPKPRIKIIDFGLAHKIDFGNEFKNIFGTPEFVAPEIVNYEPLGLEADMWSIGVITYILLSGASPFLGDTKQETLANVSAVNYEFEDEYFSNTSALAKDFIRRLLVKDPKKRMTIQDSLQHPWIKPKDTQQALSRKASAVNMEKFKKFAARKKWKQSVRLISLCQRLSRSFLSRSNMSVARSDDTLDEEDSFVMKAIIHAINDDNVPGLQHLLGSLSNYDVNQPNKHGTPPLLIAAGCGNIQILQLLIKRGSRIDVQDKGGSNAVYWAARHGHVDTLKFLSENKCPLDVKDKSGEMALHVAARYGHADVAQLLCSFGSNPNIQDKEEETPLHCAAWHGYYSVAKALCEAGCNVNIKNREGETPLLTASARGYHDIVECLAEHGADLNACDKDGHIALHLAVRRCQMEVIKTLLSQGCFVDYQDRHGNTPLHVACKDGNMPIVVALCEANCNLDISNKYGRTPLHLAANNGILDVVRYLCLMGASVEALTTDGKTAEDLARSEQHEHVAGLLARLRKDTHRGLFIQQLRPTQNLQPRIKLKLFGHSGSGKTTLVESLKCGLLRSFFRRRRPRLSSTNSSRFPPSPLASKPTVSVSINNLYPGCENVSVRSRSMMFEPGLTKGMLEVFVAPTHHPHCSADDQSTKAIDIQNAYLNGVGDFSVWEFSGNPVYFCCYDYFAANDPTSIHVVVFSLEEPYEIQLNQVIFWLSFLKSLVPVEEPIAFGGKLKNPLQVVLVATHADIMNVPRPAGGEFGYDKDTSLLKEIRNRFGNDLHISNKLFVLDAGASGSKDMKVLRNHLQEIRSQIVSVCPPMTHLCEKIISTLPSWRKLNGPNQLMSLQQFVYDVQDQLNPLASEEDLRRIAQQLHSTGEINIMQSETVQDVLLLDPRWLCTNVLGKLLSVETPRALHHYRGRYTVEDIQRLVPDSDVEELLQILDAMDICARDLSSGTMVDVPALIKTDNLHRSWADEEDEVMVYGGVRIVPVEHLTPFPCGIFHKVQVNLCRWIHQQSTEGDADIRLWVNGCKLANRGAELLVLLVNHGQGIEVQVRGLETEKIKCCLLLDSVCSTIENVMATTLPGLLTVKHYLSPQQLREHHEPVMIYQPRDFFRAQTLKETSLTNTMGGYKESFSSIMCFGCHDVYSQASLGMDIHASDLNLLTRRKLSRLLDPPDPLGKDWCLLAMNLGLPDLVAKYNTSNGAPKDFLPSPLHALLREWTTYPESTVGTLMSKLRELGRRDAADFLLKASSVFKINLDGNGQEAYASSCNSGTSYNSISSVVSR
measured-property: inhibition (%)

>>> val("COc1cc2ncn(-c3cc(O[C@H](C)c4ccccc4Cl)c(C(N)=O)s3)c2cc1OC")
-5.15
>>> val("N#Cc1c(NC(=O)c2cccc3ccccc23)sc2c1CCCC2")
8.89
>>> val("NC(=O)c1cccc(Nc2nccc(Nc3cccc4[nH]ncc34)n2)c1")
0.17
>>> val("COc1cc(C)c(NC(=O)CN(C)C)cc1Nc1nc(Nc2cccc(F)c2C(N)=O)c2cc[nH]c2n1")
1.58
>>> val("CN(C)c1cc2c(Nc3ccc4nc(Cc5ccccc5)[nH]c4c3)ncnc2cn1")
5.94
>>> val("COC(=O)Nc1nc2cc(Oc3cccc(NC(=O)Nc4cc(C(F)(F)F)ccc4F)c3)ccc2[nH]1")
0.43

---

target: Phosphatidylinositol 4,5-bisphosphate 3-kinase catalytic subunit alpha isoform (Homo sapiens) (UniProt P42336); conditions: at 1 µM;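 note: values are mean percent inhibition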
Sequence (P42336 whole entry, canonical isoform): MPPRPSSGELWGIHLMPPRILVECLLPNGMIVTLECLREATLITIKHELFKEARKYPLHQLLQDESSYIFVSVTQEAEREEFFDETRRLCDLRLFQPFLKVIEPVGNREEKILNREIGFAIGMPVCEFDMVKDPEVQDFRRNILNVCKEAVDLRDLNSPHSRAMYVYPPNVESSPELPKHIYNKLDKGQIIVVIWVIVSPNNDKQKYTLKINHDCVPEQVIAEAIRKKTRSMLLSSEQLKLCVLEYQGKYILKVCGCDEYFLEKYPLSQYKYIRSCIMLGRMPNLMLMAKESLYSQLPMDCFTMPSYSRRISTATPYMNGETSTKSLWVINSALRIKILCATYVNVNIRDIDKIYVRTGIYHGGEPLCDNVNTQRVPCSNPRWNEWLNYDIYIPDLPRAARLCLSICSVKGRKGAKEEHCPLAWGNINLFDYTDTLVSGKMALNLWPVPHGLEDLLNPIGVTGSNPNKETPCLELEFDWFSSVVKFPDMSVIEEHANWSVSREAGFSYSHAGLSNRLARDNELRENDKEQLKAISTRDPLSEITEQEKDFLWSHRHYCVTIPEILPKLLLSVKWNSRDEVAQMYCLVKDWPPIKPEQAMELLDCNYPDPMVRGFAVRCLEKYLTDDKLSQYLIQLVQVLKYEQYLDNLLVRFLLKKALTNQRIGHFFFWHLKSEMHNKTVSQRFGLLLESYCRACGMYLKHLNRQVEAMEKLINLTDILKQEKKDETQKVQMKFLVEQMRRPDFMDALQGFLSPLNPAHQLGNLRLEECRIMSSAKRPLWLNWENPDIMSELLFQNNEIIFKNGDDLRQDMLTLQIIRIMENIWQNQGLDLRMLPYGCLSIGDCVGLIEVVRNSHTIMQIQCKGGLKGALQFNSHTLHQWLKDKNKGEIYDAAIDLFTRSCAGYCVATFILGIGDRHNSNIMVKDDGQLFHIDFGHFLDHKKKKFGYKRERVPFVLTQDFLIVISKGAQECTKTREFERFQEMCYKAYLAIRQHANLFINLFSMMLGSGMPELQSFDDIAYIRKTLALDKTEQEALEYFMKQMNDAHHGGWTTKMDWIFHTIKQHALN
Below, each entry is listed alongside its reported inhibition.
measured-property: inhibition

>>> val("NS(=O)(=O)c1cccc(-c2ccc3c(NC(=O)C4CC4)n[nH]c3c2)c1")
"3.6%"
>>> val("O=C1NC(=O)C(c2ccc(Cl)cc2)=C1Nc1ccc(Cl)c(C(=O)O)c1")
"2.23%"
>>> val("CN1CCC(C(=O)Nc2n[nH]c3nnc(-c4ccccc4)cc23)CC1")
"4.26%"
>>> val("CCn1c(-c2nonc2N)nc2cnc(Oc3cccc(NC(=O)c4ccc(OCCN5CCOCC5)cc4)c3)cc21")
"3.79%"
>>> val("Fc1cccc(COc2ccc(Nc3ncnc4sc(-c5cccs5)cc34)cc2Cl)c1")
"4.07%"
>>> val("COc1cc2ncn(-c3cc(O[C@@H](C)c4ccccc4Cl)c(C(N)=O)s3)c2cc1OC")
"11.5%"
>>> val("CN(C)c1cc2c(Nc3ccc4nc(Cc5ccccc5)[nH]c4c3)ncnc2cn1")
"8.83%"
>>> val("Nc1nc(-c2ccc3c(c2)C(=Cc2cc(Br)c(O)c(Br)c2)C(=O)N3)cs1")
"24.5%"
>>> val("CCn1c(-c2nonc2N)nc2cncc(C(=O)N3CCNCC3)c21")
"5.67%"
>>> val("CCn1c(-c2nonc2N)nc2c(C#CC(C)(C)O)nc(CN3CCCC3)cc21")
"-0.12%"
>>> val("CCn1c(-c2nonc2N)nc2ccncc21")
"1.86%"
>>> val("CCN1CCC(CC(=O)Nc2n[nH]c3nc(-c4cccs4)c(Br)cc23)CC1")
"-0.57%"
>>> val("CCCN1CCC(Oc2cc(Nc3nc(Nc4cccc(F)c4C(N)=O)c4cc[nH]c4n3)c(OC)cc2Cl)CC1")
"-1.07%"
>>> val("NCc1ccc(-c2nc(-c3ccc(Cl)c(O)c3)c(-c3ccncc3)[nH]2)cc1")
"3.94%"
>>> val("O=C(Nc1n[nH]c2nc(-c3ccco3)c(Br)cc12)C1CC1")
"4.94%"
>>> val("CCCN1CCC=C(c2ccc(Nc3nc(Nc4ccccc4C(N)=O)c4cc[nH]c4n3)c(C)c2)C1")
"19.9%"

---

molecular target: Tyrosine-protein kinase SYK (Homo sapiens); details: at 0.1 µM;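 note: reported percentages are mean inhibition values for SYK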
measured-property: inhibition (%)

>>> val("CC1=C(C(=O)Nc2ccc3[nH]ncc3c2)C(c2ccc(F)cc2)NC(=O)N1 (centres undefined)")
0.2
>>> val("CCn1c(-c2nonc2N)nc2ccncc21")
0.22
>>> val("COc1cc(C=NNc2ncnc3c2cnn3-c2ccccc2)ccc1O")
-2.75
>>> val("CS(=O)(=O)CCN(CC#N)Cc1ccc(-c2ccc3ncnc(Nc4ccc(OCc5cccc(F)c5)c(Cl)c4)c3c2)o1")
1.85

---

target: Mitogen-activated protein kinase 14 (Homo sapiens) (UniProt Q16539); conditions: at 0.1 µM;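 note: values are mean percent inhibition of p38α kinase from the GSK PKIS published kinase inhibitor set screen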
Sequence (Q16539 whole entry): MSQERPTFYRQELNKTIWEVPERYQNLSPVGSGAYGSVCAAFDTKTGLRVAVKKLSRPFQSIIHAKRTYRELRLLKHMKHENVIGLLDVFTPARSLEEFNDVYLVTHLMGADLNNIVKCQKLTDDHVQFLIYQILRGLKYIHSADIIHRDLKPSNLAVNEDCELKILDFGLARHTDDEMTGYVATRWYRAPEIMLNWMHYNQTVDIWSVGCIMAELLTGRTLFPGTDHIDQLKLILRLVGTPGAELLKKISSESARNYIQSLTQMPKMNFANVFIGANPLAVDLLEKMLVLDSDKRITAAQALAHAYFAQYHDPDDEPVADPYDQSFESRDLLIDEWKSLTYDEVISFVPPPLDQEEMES
Recorded inhibition, one value per entry.
measured-property: inhibition (%)

>>> val("O=C1NC(=O)C(c2cccc(Cl)c2)=C1Nc1ccc(O)c(Cl)c1")
1.38
>>> val("Cc1ccc(NC(=O)c2ccnc(N3CCCC3)c2)cc1-c1ccc(C(=O)NCC2CC2)cc1")
38.3
>>> val("[O-][S+]1CCN(Cc2ccc(-c3ccc4ncnc(Nc5ccc(OCc6ccccc6)c(F)c5)c4c3)o2)CC1")
1.59
>>> val("CN1CCC(C(=O)Nc2n[nH]c3nnc(-c4ccccc4)cc23)CC1")
2.08
>>> val("CN(C)c1cc2c(Nc3ccc4nc(Cc5ccccc5)[nH]c4c3)ncnc2cn1")
6.65
>>> val("CS(=O)(=O)Nc1ccc(N/C=C2\\C(=O)Nc3ccccc32)cc1")
-4.68
>>> val("COC(=O)Nc1nc2cc(Oc3ccc(NC(=O)Nc4cccc(C(=O)O)c4)cc3)ccc2[nH]1")
-1.1
>>> val("c1cnn2ncc(-c3ccnc(Nc4ccc5c(c4)OCCO5)n3)c2c1")
7.07
>>> val("CS(=O)(=O)CCNCc1nc(-c2ccc3ncnc(Nc4ccc(F)c(Cl)c4)c3c2)cs1")
2.36
>>> val("COc1ccc(-c2ccncc2)cc1C(N)=O")
7.77
>>> val("Cc1ccc(C(=O)NC2CCCCC2)cc1-c1ccc(C(=O)NCC2CC2)cc1")
5.36

---

target: Glycogen synthase kinase-3 alpha (Homo sapiens); settings: at 1 µM;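 note: each figure is a mean percent inhibition of GSK3A activity, from a screen of the GSK published kinase inhibitor set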
measured-property: inhibition (%)

>>> val("Nc1ncnc2occ(-c3ccc(NC(=O)Nc4cccc(C(F)(F)F)c4)cc3)c12")
9.54
>>> val("CS(=O)(=O)CCN(CC#N)Cc1ccc(-c2ccc3ncnc(Nc4ccc(OCc5cccc(F)c5)c(Cl)c4)c3c2)o1")
0.08
>>> val("CCn1c(-c2nonc2N)nc2cncc(C(=O)N3CC[C@H](N)C3)c21")
19.3
>>> val("NS(=O)(=O)c1cccc(-c2ccc3c(NC(=O)C4CC4)n[nH]c3c2)c1")
3.15
>>> val("COC(=O)Nc1nc2cc(Oc3ccc(NC(=O)Nc4cccc(C(=O)O)c4)cc3)ccc2[nH]1")
1.82
>>> val("COc1cc2ncn(-c3cc(O[C@H](C)c4ccccc4Cl)c(C(N)=O)s3)c2cc1OC")
19.8
>>> val("COc1cc2ncn(-c3cc(OCc4ccccc4C(F)(F)F)c(C(N)=O)s3)c2cc1OC")
4.9
>>> val("CCc1cccc(NC(=O)Nc2ccc(Oc3ccc4nc(NC(=O)OC)[nH]c4c3)cc2)c1")
4.83
>>> val("Fc1cccc(COc2ccc(Nc3ncnc4sc(-c5cccs5)cc34)cc2Cl)c1")
6.14

---

biological target: Mitogen-activated protein kinase kinase kinase kinase 4 (Homo sapiens); conditions: at 0.1 µM
Description: GSK_PKIS: MAP4K4 mean inhibition at 0.1 uM [Nanosyn]
Class assignment keyed on inhibition, ranges lower range (below 3%), middle range (3% to below 4%), upper range (4% or more)

>>> cat("O=C1NC(=O)C(N2CCc3ccccc32)=C1c1ccc(Cl)cc1")
"upper range"
>>> cat("COc1cc2ncn(-c3cc(O[C@@H](C)c4ccccc4Cl)c(C(N)=O)s3)c2cc1OC")
"upper range"
>>> cat("O=C1NC(=O)C(c2ccccc2Cl)=C1Nc1cccc(O)c1")
"middle range"
>>> cat("Fc1cccc(COc2ccc(Nc3ncnc4cc(-c5ccc[nH]5)sc34)cc2Cl)c1")
"upper range"
>>> cat("CS(=O)(=O)CCNCc1ccc(-c2ccc3ncnc(Nc4ccc(OCc5ccccc5)c(Cl)c4)c3c2)o1")
"lower range"
>>> cat("COc1cc2ncn(-c3cc(O[C@H](C)c4ccccc4Cl)c(C(N)=O)s3)c2cc1OC")
"upper range"
>>> cat("CC1=C(C(=O)Nc2ccc3[nH]ncc3c2)C(c2ccc(Cl)c(Cl)c2)CC(=O)N1 (centres undefined)")
"lower range"
>>> cat("CS(=O)(=O)CCNCc1nc(-c2ccc3ncnc(Nc4ccc(F)c(Cl)c4)c3c2)cs1")
"middle range"
>>> cat("COC(=O)Nc1nc2cc(Oc3ccc(NC(=O)Nc4cccc(C(=O)O)c4)cc3)ccc2[nH]1")
"lower range"
>>> cat("COc1ccc(-c2coc3ncnc(N)c23)cc1")
"upper range"
>>> cat("COC(=O)Nc1nc2cc(Oc3cccc(NC(=O)Nc4cc(C(F)(F)F)ccc4F)c3)ccc2[nH]1")
"middle range"
>>> cat("CCn1c(-c2nonc2N)nc2c(C#CC(C)(C)O)nc(CN3CCCC3)cc21")
"lower range"
>>> cat("CN1CCC(C(=O)Nc2n[nH]c3nnc(-c4ccccc4)cc23)CC1")
"upper range"
>>> cat("Cc1cc(O)cc(C)c1/C=C/c1cncc(-c2nn[nH]n2)c1")
"upper range"

---

This section presents compounds with their documented inhibition values.
test system: Serine/threonine-protein kinase B-raf (Homo sapiens), P15056 [V600E]; details: at 1 µM;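 note: enzyme inhibition of the BRAF V599E mutant kinase, given as mean percent inhibition, screened within the GSK PKIS kinase inhibitor set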
Sequence (P15056 whole entry V600E): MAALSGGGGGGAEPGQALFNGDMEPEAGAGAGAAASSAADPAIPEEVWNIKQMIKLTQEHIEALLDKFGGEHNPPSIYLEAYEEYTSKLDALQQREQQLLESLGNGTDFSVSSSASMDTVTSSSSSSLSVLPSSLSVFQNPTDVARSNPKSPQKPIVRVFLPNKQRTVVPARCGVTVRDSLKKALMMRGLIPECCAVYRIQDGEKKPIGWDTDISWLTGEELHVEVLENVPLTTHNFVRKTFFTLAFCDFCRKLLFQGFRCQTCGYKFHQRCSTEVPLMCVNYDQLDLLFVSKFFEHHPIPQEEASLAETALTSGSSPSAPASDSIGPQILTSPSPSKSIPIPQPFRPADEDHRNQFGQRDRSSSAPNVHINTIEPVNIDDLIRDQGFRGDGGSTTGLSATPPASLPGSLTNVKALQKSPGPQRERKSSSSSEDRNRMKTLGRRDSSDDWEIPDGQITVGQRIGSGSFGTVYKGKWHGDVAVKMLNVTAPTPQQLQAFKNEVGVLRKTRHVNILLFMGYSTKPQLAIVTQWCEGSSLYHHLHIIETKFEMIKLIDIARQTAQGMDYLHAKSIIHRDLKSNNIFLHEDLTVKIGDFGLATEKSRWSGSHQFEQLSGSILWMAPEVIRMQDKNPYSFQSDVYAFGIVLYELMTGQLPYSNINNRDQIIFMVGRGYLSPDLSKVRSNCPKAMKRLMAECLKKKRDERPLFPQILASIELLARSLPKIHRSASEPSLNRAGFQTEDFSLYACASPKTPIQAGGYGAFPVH
Description: GSK_PKIS: BRAF (V599E mutant) mean inhibition at 1 uM [Nanosyn]
measured-property: inhibition (%)

>>> val("Fc1cccc(COc2ccc(Nc3ncnc4sc(-c5cccs5)cc34)cc2Cl)c1")
1.65
>>> val("CS(=O)(=O)CCN(CC#N)Cc1ccc(-c2ccc3ncnc(Nc4ccc(OCc5cccc(F)c5)c(Cl)c4)c3c2)o1")
2.17
>>> val("O=C1Nc2ccc(C(=O)c3ccco3)cc2C1=Cc1cc(Cl)c(O)c(Cl)c1")
27.4
>>> val("CCn1c(-c2nonc2N)nc2c(C#CC(C)(C)O)nc(CN3CCCC3)cc21")
-0.8

Data provenance is ChEMBL document CHEMBL1961873.
